Assignment: determine reported pH 2 solubility for the given compounds.
# ASSAY CONDITIONS: 0.1N HCL, 1.0% DMSO, 24-hour incubation at ambient temperature, maximum theoretical compound concentration 100 μM
One number for each entry, in μM.

MOL SMILES | pH 2 solubility (μM)
CN(C)CCCC[C@@H](C(=O)N(c1nn(CC(F)(F)F)c2c(-c3ccc(C#CC(C)(C)S(C)(=O)=O)nc3[C@H](Cc3cc(F)cc(F)c3)NC(=O)Cn3nc(C(F)(F)F)c4c3C(F)(F)[C@@H]3C[C@H]43)ccc(Cl)c12)S(C)(=O)=O)N(C)C | 100
CC(C)(C#Cc1ccc(-c2ccc(Cl)c3c(N(C(=O)CCCNC(=O)OCOP(=O)(O)O)S(C)(=O)=O)nn(CC(F)(F)F)c23)c([C@H](Cc2cc(F)cc(F)c2)NC(=O)Cn2nc(C(F)(F)F)c3c2C(F)(F)[C@@H]2C[C@H]32)n1)S(C)(=O)=O | 1
CNCC(=O)N(c1nn(CC(F)(F)F)c2c(-c3ccc(C#CC(C)(C)S(C)(=O)=O)nc3[C@H](Cc3cc(F)cc(F)c3)NC(=O)Cn3nc(C(F)(F)F)c4c3C(F)(F)[C@@H]3C[C@H]43)ccc(Cl)c12)S(C)(=O)=O | 37
CC(C)(C#Cc1ccc(-c2ccc(Cl)c3c(N(C(=O)CCCN(CC(=O)O)C(=O)OCOP(=O)(O)O)S(C)(=O)=O)nn(CC(F)(F)F)c23)c([C@H](Cc2cc(F)cc(F)c2)NC(=O)Cn2nc(C(F)(F)F)c3c2C(F)(F)[C@@H]2C[C@H]32)n1)S(C)(=O)=O | 1

Hello, I would appreciate it if you could give pH 2 solubility for each entry below.
1. CN(C)CC(=O)N(c1nn(CC(F)(F)F)c2c(-c3ccc(C#CC(C)(C)S(C)(=O)=O)nc3[C@H](Cc3cc(F)cc(F)c3)NC(=O)Cn3nc(C(F)(F)F)c4c3C(F)(F)[C@@H]3C[C@H]43)ccc(Cl)c12)S(C)(=O)=O
2. CN[C@H](C(=O)N(c1nn(CC(F)(F)F)c2c(-c3ccc(C#CC(C)(C)S(C)(=O)=O)nc3[C@H](Cc3cc(F)cc(F)c3)NC(=O)Cn3nc(C(F)(F)F)c4c3C(F)(F)[C@@H]3C[C@H]43)ccc(Cl)c12)S(C)(=O)=O)C(C)C

1. 42
2. 72

###

I'd be grateful if you could share measured solubility for these entries.
# ASSAY COMMENT: physchem
# ASSAY CONDITIONS: 25 °C, fassif, thermodynamic from solid
One number for each entry, in µg/mL.

Before answering, review these 3 worked examples.
MOL SMILES | VALUE UNITS | solubility
Cc1cc(CC(=O)O)c(C(C)(C)CC(=O)N(c2nn(CC(F)(F)F)c3c(-c4ccc(C#CC(C)(C)S(C)(=O)=O)nc4[C@H](Cc4cc(F)cc(F)c4)NC(=O)Cn4nc(C(F)(F)F)c5c4C(F)(F)[C@@H]4C[C@H]54)ccc(Cl)c23)S(C)(=O)=O)c(OP(=O)(O)O)c1 | µg/mL | 2870
CC(C)(Cc1ccccc1OP(=O)(O)O)C(=O)N(c1nn(CC(F)(F)F)c2c(-c3ccc(C#CC(C)(C)S(C)(=O)=O)nc3[C@H](Cc3cc(F)cc(F)c3)NC(=O)Cn3nc(C(F)(F)F)c4c3C(F)(F)[C@@H]3C[C@H]43)ccc(Cl)c12)S(C)(=O)=O | µg/mL | 700
Cc1cc(P(=O)(O)O)cc(OP(=O)(O)O)c1C(C)(C)CC(=O)N(c1nn(CC(F)(F)F)c2c(-c3ccc(C#CC(C)(C)S(C)(=O)=O)nc3[C@H](Cc3cc(F)cc(F)c3)NC(=O)Cn3nc(C(F)(F)F)c4c3C(F)(F)[C@@H]3C[C@H]43)ccc(Cl)c12)S(C)(=O)=O | µg/mL | 7300

Here are 3 molecules. What values of solubility were reported for them?
1. Cc1cc(C)c(C(C)(C)CC(=O)N(c2nn(CC(F)(F)F)c3c(-c4ccc(C#CC(C)(C)S(C)(=O)=O)nc4[C@H](Cc4cc(F)cc(F)c4)NC(=O)Cn4nc(C(F)(F)F)c5c4C(F)(F)[C@@H]4C[C@H]54)ccc(Cl)c23)S(C)(=O)=O)c(OP(=O)(O)O)c1
2. CC(C)(C#Cc1ccc(-c2ccc(Cl)c3c(N(C(=O)Cc4ccccc4OP(=O)(O)O)S(C)(=O)=O)nn(CC(F)(F)F)c23)c([C@H](Cc2cc(F)cc(F)c2)NC(=O)Cn2nc(C(F)(F)F)c3c2C(F)(F)[C@@H]2C[C@H]32)n1)S(C)(=O)=O
3. CC(C)(C#Cc1ccc(-c2ccc(Cl)c3c(N(C(=O)Cc4ccc(OP(=O)(O)O)cc4)S(C)(=O)=O)nn(CC(F)(F)F)c23)c([C@H](Cc2cc(F)cc(F)c2)NC(=O)Cn2nc(C(F)(F)F)c3c2C(F)(F)[C@@H]2C[C@H]32)n1)S(C)(=O)=O

1. 777
2. 456
3. 1750

###

# ASSAY CONDITIONS: pH 2
MEASUREMENT TYPE: pH 2 solubility

MOLECULE | pH 2 solubility
CC(C)(CC(=O)N(c1nn(CC(F)(F)F)c2c(-c3ccc(C#CC(C)(C)S(C)(=O)=O)nc3[C@H](Cc3cc(F)cc(F)c3)NC(=O)Cn3nc(C(F)(F)F)c4c3C(F)(F)[C@@H]3C[C@H]43)ccc(Cl)c12)S(C)(=O)=O)c1c(CC(=O)N[C@@H](CC(=O)O)C(=O)O)cc(C(N)=O)cc1OP(=O)(O)O [Compound 69] | 3/75 μM
Cc1cc(C(=O)O)cc(OP(=O)(O)O)c1C(C)(C)CC(=O)N(c1nn(CC(F)(F)F)c2c(-c3ccc(C#CC(C)(C)S(C)(=O)=O)nc3[C@H](Cc3cc(F)cc(F)c3)NC(=O)Cn3nc(C(F)(F)F)c4c3C(F)(F)[C@@H]3C[C@H]43)ccc(Cl)c12)S(C)(=O)=O [Compound 49] | 3/100 μM
Cc1cc(C(=O)NCP(=O)(O)O)cc(OP(=O)(O)O)c1C(C)(C)CC(=O)N(c1nn(CC(F)(F)F)c2c(-c3ccc(C#CC(C)(C)S(C)(=O)=O)nc3[C@H](Cc3cc(F)cc(F)c3)NC(=O)Cn3nc(C(F)(F)F)c4c3C(F)(F)[C@@H]3C[C@H]43)ccc(Cl)c12)S(C)(=O)=O [Compound 60] | 1/64 μM
CC(C)(CC(=O)N(c1nn(CC(F)(F)F)c2c(-c3ccc(C#CC(C)(C)S(C)(=O)=O)nc3[C@H](Cc3cc(F)cc(F)c3)NC(=O)Cn3nc(C(F)(F)F)c4c3C(F)(F)[C@@H]3C[C@H]43)ccc(Cl)c12)S(C)(=O)=O)c1c(CC(=O)N[C@@H](CC(=O)O)C(=O)O)cccc1OP(=O)(O)O [Compound 71] | 2/88 μM
CC(C)(C#Cc1ccc(-c2ccc(Cl)c3c(N(C(=O)/C=C/C(=O)O)S(C)(=O)=O)nn(CC(F)(F)F)c23)c([C@H](Cc2cc(F)cc(F)c2)NC(=O)Cn2nc(C(F)(F)F)c3c2C(F)(F)[C@@H]2C[C@H]32)n1)S(C)(=O)=O [Compound 1] | 1/86 μM

// batch mode: one pH 2 solubility value per listed entry
1. Cc1cc(CC(=O)NCP(=O)(O)O)c(C(C)(C)CC(=O)N(c2nn(CC(F)(F)F)c3c(-c4ccc(C#CC(C)(C)S(C)(=O)=O)nc4[C@H](Cc4cc(F)cc(F)c4)NC(=O)Cn4nc(C(F)(F)F)c5c4C(F)(F)[C@@H]4C[C@H]54)ccc(Cl)c23)S(C)(=O)=O)c(OP(=O)(O)O)c1 [Compound 61]
2. Cc1cc(CP(=O)(O)O)cc(OP(=O)(O)O)c1C(C)(C)CC(=O)N(c1nn(CC(F)(F)F)c2c(-c3ccc(C#CC(C)(C)S(C)(=O)=O)nc3[C@H](Cc3cc(F)cc(F)c3)NC(=O)Cn3nc(C(F)(F)F)c4c3C(F)(F)[C@@H]3C[C@H]43)ccc(Cl)c12)S(C)(=O)=O [Compound 56]
3. CN(C(=O)N(c1nn(CC(F)(F)F)c2c(-c3ccc(C#CC(C)(C)S(C)(=O)=O)nc3[C@H](Cc3cc(F)cc(F)c3)NC(=O)Cn3nc(C(F)(F)F)c4c3C(F)(F)[C@@H]3C[C@H]43)ccc(Cl)c12)S(C)(=O)=O)c1ncccc1COP(=O)(O)O [Compound 53]
4. CC(C)(C#Cc1ccc(-c2ccc(Cl)c3c(N(C(=O)Cc4ccccc4OP(=O)(O)O)S(C)(=O)=O)nn(CC(F)(F)F)c23)c([C@H](Cc2cc(F)cc(F)c2)NC(=O)Cn2nc(C(F)(F)F)c3c2C(F)(F)[C@@H]2C[C@H]32)n1)S(C)(=O)=O [Compound 45]

["2/70 μM", "1/100 μM", "2/78 μM", "1/1 μM"]
